- Test system: SKMES-1
- Assay Explanation: MTT assay, IC50 of CDDP in NSCLC cell lines
- Assay type: cell-based, Human
- Particulars: SKMES-1, MTT assay
pIC50: −log10 of the molar value.
Assay Metric: pIC50

[[record]]
compound = "[NH2][Pt]([NH2])([Cl])[Cl] [CDDP, cisplatin]"
experimental_target = "SKMES-1"
reading = 5.00


###

- Tested on: H1437
- Assay Explanation: MTT assay, IC50 of CDDP in NSCLC cell lines
- Assay type: cell-based, Human
pIC50: −log10 of the molar value.
Assay Metric: pIC50

[[record]]
compound = "[NH2][Pt]([NH2])([Cl])[Cl] [CDDP, cisplatin]"
experimental_target = "H1437"
reading = 4.30

